Values were extracted from patent US20240148821A1.

# assayed-system: protein-protein interaction between Kras and SOS1 (biotin-tagged human Kras loaded with GDP, His-tagged human SOS1) (Homo sapiens (Human), UniProt P01116, G12D)
# measurement-protocol: Protein-protein interaction inhibition between Kras and SOS1 (KrasG12D-SOS PPI) using AlphaScreen
# Format: biochemical
# experimental-context: AlphaScreen; biotin-tagged human Kras loaded with GDP, His-tagged human SOS1; read-out: KRAS G12D-SOS PPI IC50
Bridge positions count the residues as written; N and C are the ends. Square brackets hold non-standard residues; d marks the D form. Peptide text beside a SMILES is read from it. * marks the point of attachment. hPhe(3-Cl-4-CF3) = N[C@@H](CCc1ccc(C(F)(F)F)c(Cl)c1)C(=O)O; NMePhe(4-Me) = CN[C@@H](Cc1ccc(C)cc1)C(=O)O; NMeGly(cPent) = CN[C@H](C(=O)O)C1CCCC1; NMeCha = CN[C@@H](CC1CCCCC1)C(=O)O; Azetidine(3,3-F2) = FC1(F)CN(*)C1; NMeE = CN[C@@H](CCC(=O)O)C(=O)O; NMeD = CN[C@@H](CC(=O)O)C(=O)O; NMeL = CN[C@@H](CC(C)C)C(=O)O; d(β3hA) = C[C@@H](N)CC(=O)O; Morpholide = C1CN(*)CCO1; NMeA = CN[C@@H](C)C(=O)O; Ac5c = NC1(C(=O)O)CCCC1; Aze = O=C(O)[C@@H]1CCN1; Sar = CNCC(=O)O
measure-name: IC50 (nM)
Quick reminder: number only, in nM, skip the unit.

Problem: Record request: IC50 value, item CC[C@H](C)[C@@H]1NC(=O)[C@H](CC(C)C)N(C)C(=O)C[C@@H](C(=O)N2CCOCC2)N(C)C(=O)[C@H](C2CCCC2)N(C)C(=O)C2(CCCC2)NC(=O)[C@H](CCC(=O)N2CC(F)(F)C2)N(C)C(=O)[C@H](CCc2ccc(C(F)(F)F)c(Cl)c2)NC(=O)CN(C)C(=O)[C@H](CC2CCCCC2)N(C)C(=O)[C@@H]2CCN2C(=O)[C@H](C)N(C)C1=O [Compound 2098] ([NMeL]I[NMeA][Aze][NMeCha][Sar][hPhe(3-Cl-4-CF3)][NMeE](Azetidine(3,3-F2))[Ac5c][NMeGly(cPent)][NMeD]-Morpholide; lactam N-11)
Solution: 8

Problem: If you can, please state the reported IC50 value of CC[C@H](C)[C@@H]1NC(=O)[C@H](CC(C)C)NC(=O)C[C@@H](C)NC(=O)[C@H](C2CCCC2)N(C)C(=O)C2(CCCC2)NC(=O)[C@@H]2CCCN2C(=O)[C@H](CCc2ccc(C(F)(F)F)c(Cl)c2)NC(=O)CN(C)C(=O)[C@H](Cc2ccc(C)cc2)N(C)C(=O)[C@@H]2CCN2C(=O)[C@H](C)N(C)C1=O [Compound 648] (cyclo([Ac5c][NMeGly(cPent)][d(β3hA)]LI[NMeA][Aze][NMePhe(4-Me)][Sar][hPhe(3-Cl-4-CF3)]P)) .
Solution: 3.2

###

# assayed-system: protein-protein interaction between Kras and SOS1 (biotin-tagged human Kras loaded with GDP, His-tagged human SOS1) (Homo sapiens (Human), UniProt P01116, G12D)
# measurement-protocol: Protein-protein interaction inhibition between Kras and SOS1 (KrasG12D-SOS PPI) using AlphaScreen
# Type: biochemical
# experimental-context: AlphaScreen; biotin-tagged human Kras loaded with GDP, His-tagged human SOS1; read-out: KRAS G12D-SOS PPI IC50
Bridge positions count the residues as written; N and C are the ends. Square brackets hold non-standard residues; d marks the D form. Peptide text beside a SMILES is read from it. * marks the point of attachment. hPhe(3-Cl-4-CF3) = N[C@@H](CCc1ccc(C(F)(F)F)c(Cl)c1)C(=O)O; NMePhe(4-CF3) = CN[C@@H](Cc1ccc(C(F)(F)F)cc1)C(=O)O; NMePhe(4-Me) = CN[C@@H](Cc1ccc(C)cc1)C(=O)O; NMeAla(cPent) = CN[C@@H](CC1CCCC1)C(=O)O; NMeGly(cPent) = CN[C@H](C(=O)O)C1CCCC1; NMeI = CC[C@H](C)[C@H](NC)C(=O)O; NMeD = CN[C@@H](CC(=O)O)C(=O)O; NMeL = CN[C@@H](CC(C)C)C(=O)O; d(β3hA) = C[C@@H](N)CC(=O)O; NMeA = CN[C@@H](C)C(=O)O; Pyrrolidide = C1CCN(*)C1; Ac5c = NC1(C(=O)O)CCCC1; Aze = O=C(O)[C@@H]1CCN1; Sar = CNCC(=O)O
Would you mind telling me the reported IC50 of each entry?
Provide only the numeric value, understood in nM.

Problem: Consider the compound CC[C@H](C)[C@@H]1NC(=O)[C@H](CC(C)C)N(C)C(=O)C[C@@H](C)NC(=O)[C@H](C2CCCC2)N(C)C(=O)[C@@H](C(C)C)NC(=O)[C@@H]2CCCN2C(=O)[C@H](CCc2ccc(C(F)(F)F)c(Cl)c2)NC(=O)CN(C)C(=O)[C@H](Cc2ccc(C)cc2)N(C)C(=O)[C@@H]2CCN2C(=O)[C@H](C)N(C)C1=O [Compound 598] (cyclo([Aze][NMePhe(4-Me)][Sar][hPhe(3-Cl-4-CF3)]P[dV][NMeGly(cPent)][d(β3hA)][NMeL]I[NMeA])) and give its measured IC50.
Solution: 300

Problem: # query: IC50 of entry CC[C@H](C)[C@@H]1NC(=O)[C@H](CC2CCCC2)N(C)C(=O)C[C@@H](C(=O)N2CCCC2)N(C)C(=O)[C@H]([C@@H](C)CC)N(C)C(=O)C2(CCCC2)NC(=O)[C@@H]2CCCN2C(=O)[C@H](CCc2ccc(C(F)(F)F)c(Cl)c2)NC(=O)CN(C)C(=O)[C@H](Cc2ccc(C(F)(F)F)cc2)N(C)C(=O)[C@@H]2CCN2C(=O)[C@H](C)NC1=O [Compound 1320] ([NMeAla(cPent)]IA[Aze][NMePhe(4-CF3)][Sar][hPhe(3-Cl-4-CF3)]P[Ac5c][NMeI][NMeD]-Pyrrolidide; lactam N-11)
Solution: 1.4

###

# assayed-system: protein-protein interaction between Kras and SOS1 (biotin-tagged human Kras loaded with GDP, His-tagged human SOS1) (Homo sapiens (Human), UniProt P01116, G12D)
# measurement-protocol: Protein-protein interaction inhibition between Kras and SOS1 (KrasG12D-SOS PPI) using AlphaScreen;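 note: kras produced in E. coli, Ni-coupled donor beads and streptavidin acceptor beads, excitation 680 nm with emission detected at 520–620 nm via singlet oxygen transfer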
# Format: biochemical
# experimental-context: AlphaScreen; biotin-tagged human Kras loaded with GDP, His-tagged human SOS1; read-out: KRAS G12D-SOS PPI IC50
Numbered stars: 1 amine (or outer) side, 2 acyl side, 3 side chain; on linkers, the order of the positions; unused ones are H or OH. Bridge positions count the residues as written; N and C are the ends. Square brackets hold non-standard residues; d marks the D form. Peptide text beside a SMILES is read from it. * marks the point of attachment. hPhe(3-Cl-4-CF3) = N[C@@H](CCc1ccc(C(F)(F)F)c(Cl)c1)C(=O)O; NMePhe(4-CF3) = CN[C@@H](Cc1ccc(C(F)(F)F)cc1)C(=O)O; X116 = O=C([C@H](CCc1cccc(F)c1)N[*:1])[*:2]; NMedβ3hAla = C[C@H](CC(=O)[*:2])N(C)[*:1]; Pro(4,4-F2) = O=C(O)[C@@H]1CC(F)(F)CN1; NMeCha = CN[C@@H](CC1CCCCC1)C(=O)O; NMeChg = CN[C@H](C(=O)O)C1CCCCC1; NMeD = CN[C@@H](CC(=O)O)C(=O)O; NMeL = CN[C@@H](CC(C)C)C(=O)O; NMeV = CN[C@H](C(=O)O)C(C)C; NMeA = CN[C@@H](C)C(=O)O; Piperidide = C1CCN(*)CC1; Ac5c = NC1(C(=O)O)CCCC1; Aze = O=C(O)[C@@H]1CCN1; Sar = CNCC(=O)O
measure-name: pIC50
Worth noting: pIC50 values are minus log10 of concentrations stated in mol/L.

Problem: Looking for the measured pIC50 of CC[C@H](C)[C@@H]1NC(=O)[C@H](C)N(C)C(=O)C[C@@H](C(=O)N2CCCCC2)N(C)C(=O)[C@H](C(C)C)N(C)C(=O)C2(CCCC2)NC(=O)[C@@H]2CCCN2C(=O)[C@H](CCc2cccc(F)c2)NC(=O)CN(C)C(=O)[C@H](CC2CCCCC2)N(C)C(=O)[C@@H]2CCN2C(=O)[C@H](C)N(C)C1=O [Compound 685] ([NMeA]I[NMeA][Aze][NMeCha][Sar][X116]P[Ac5c][NMeV][NMeD]-Piperidide; lactam N-11) , can you help?
Solution: 6.89

Problem: Can you share its pIC50? I mean this compound: CC[C@H](C)[C@@H]1NC(=O)[C@H](CC(C)C)N(C)C(=O)C[C@@H](C)N(C)C(=O)[C@H](C2CCCCC2)N(C)C(=O)C2(CCCC2)NC(=O)[C@@H]2CC(F)(F)CN2C(=O)[C@H](CCc2ccc(C(F)(F)F)c(Cl)c2)NC(=O)CN(C)C(=O)[C@H](Cc2ccc(C(F)(F)F)cc2)N(C)C(=O)[C@@H]2CCN2C(=O)[C@H](C)N(C)C1=O [Compound 319] (cyclo([Ac5c][NMeChg][NMedβ3hAla][NMeL]I[NMeA][Aze][NMePhe(4-CF3)][Sar][hPhe(3-Cl-4-CF3)][Pro(4,4-F2)]))
Solution: 8.09
